# System: Pancreatin
# experiment: Protease stability in simulated intestinal fluid (Pancreatin-SIF, FaSSIF)
# Format: in vitro ADME
# conditionContext: 120 min, 1 μM peptide, 37° C., read-out: FaSSIF 120 (min), remaining percent of peptide
Starred links: 1 amine or outer side, 2 acyl side, 3 side chain; linkers in the order of their positions; H or OH if unused. Positions of bridges follow the written chain, without caps; N, C: chain ends. Non-standard residues stand in square brackets, D forms with d. Residues, ends and D or L forms follow the SMILES beside them. *: point of attachment. X3 = CN(CCCCC(=O)N[C@@H](CS[*:2])C(=O)[*:1])[*:3]; Trp(7-Me) = Cc1cccc2c(C[C@H](N)C(=O)O)c[nH]c12; X1 = O=C(CCCCN[*:3])N[C@@H](CS[*:2])C(=O)[*:1]; αMeLys(Me2) = CN(C)CCCC[C@](C)(N)C(=O)O; 2Nal = N[C@@H](Cc1ccc2ccccc2c1)C(=O)O; d2Nal = N[C@H](Cc1ccc2ccccc2c1)C(=O)O; AEF = NCCOc1ccc(C[C@H](N)C(=O)O)cc1; 3Pal = N[C@@H](Cc1cccnc1)C(=O)O; Thp = NC1(C(=O)O)CCOCC1; Me2NCH2CH2 = CN(C)CC*; Sar = CNCC(=O)O
metricName: remaining at 2 h, 1 µM (%)
The answer is to be given in %; state only the numeric part.

{"columns": ["compound", "remaining at 2 h, 1 µM, %"],
 "data": [
  ["CC(=O)NCCCC[C@@H]1NC(=O)[C@H](Cc2c[nH]c3c(C)cccc23)NC(=O)[C@@H](NC(C)=O)CCCCNC(=O)[C@@H]2CSSC[C@H](NC1=O)C(=O)N[C@@H](Cc1ccc(OCCN(C)C)cc1)C(=O)N[C@H](Cc1ccc3ccccc3c1)C(=O)N[C@@](C)(CCCCN(C)C)C(=O)N[C@H](C(=O)N[C@@H](CC(N)=O)C(=O)N[C@@H](Cc1cccnc1)C(=O)N(C)CC(N)=O)CCC(=O)NCCCCC(=O)N2 [compound 149] (Ac-K[Trp(7-Me)]K(Ac)CY(Me2NCH2CH2)[d2Nal][αMeLys(Me2)]EN[3Pal][Sar]-NH2; linker 1-4-8 via X1)", 99]
]}

For the next question, use this compound.
Request: Item CC(=O)N[C@H]1CCCCNC(=O)[C@@H]2CSSC[C@H](NC(=O)[C@H](CCC(N)=O)NC(=O)[C@H](Cc3c[nH]c4ccccc34)NC1=O)C(=O)N[C@@H](Cc1ccc(OCCN)cc1)C(=O)N[C@@H](Cc1ccc3ccccc3c1)C(=O)NC1(CCOCC1)C(=O)N[C@H](C(=O)N[C@@H](CC(N)=O)C(=O)NCC(N)=O)CCC(=O)N(C)CCCCC(=O)N2 [compound 16] (Ac-KWQC[AEF][2Nal][Thp]ENG-NH2; linker 1-4-8 via X3) has what recorded remaining at 2 h, 1 µM?
Result: 67

###

# System: Pancreatin
# experiment: Protease stability in simulated intestinal fluid (Pancreatin-SIF, FaSSIF)
# Assay type: in vitro ADME
# conditionContext: 60 min, 1 μM peptide, 37° C., read-out: FaSSIF 60 (min), remaining percent of peptide
Starred links: 1 amine or outer side, 2 acyl side, 3 side chain; linkers in the order of their positions; H or OH if unused. Positions of bridges follow the written chain, without caps; N, C: chain ends. Non-standard residues stand in square brackets, D forms with d. Residues, ends and D or L forms follow the SMILES beside them. *: point of attachment. Trp(7-Me) = Cc1cccc2c(C[C@H](N)C(=O)O)c[nH]c12; X1 = O=C(CCCCN[*:3])N[C@@H](CS[*:2])C(=O)[*:1]; αMeLys(Me2) = CN(C)CCCC[C@](C)(N)C(=O)O; 2Nal = N[C@@H](Cc1ccc2ccccc2c1)C(=O)O; d2Nal = N[C@H](Cc1ccc2ccccc2c1)C(=O)O; 3Pal = N[C@@H](Cc1cccnc1)C(=O)O; αMeL = CC(C)C[C@](C)(N)C(=O)O; Me2NCH2CH2 = CN(C)CC*; Aib = CC(C)(N)C(=O)O; Ahx = NCCCCCC(=O)O; Ava = NCCCCC(=O)O; Sar = CNCC(=O)O
metricName: remaining at 1 h, 1 µM (%)
Just the number in %, nothing appended.

{"columns": ["compound", "readoutUnit", "remaining at 1 h, 1 µM"],
 "data": [
  ["CC(=O)NCCCC[C@@H]1NC(=O)[C@H](Cc2c[nH]c3c(C)cccc23)NC(=O)[C@H]([C@@H](C)O)NC(=O)[C@H](CC(N)=O)NC(=O)[C@@H]2CSSC[C@H](NC1=O)C(=O)N[C@@H](Cc1ccc(OCCN(C)C)cc1)C(=O)N[C@@H](Cc1ccc3ccccc3c1)C(=O)N[C@@](C)(CC(C)C)C(=O)N[C@H](C(=O)N[C@@H](CC(N)=O)C(=O)N[C@@H](Cc1c[nH]cn1)C(N)=O)CCC(=O)NCCCCC(=O)N2 [compound 22] ([Ava]CNT[Trp(7-Me)]K(Ac)CY(Me2NCH2CH2)[2Nal][αMeL]ENH-NH2; disulfide 2-7; lactam N-11)", "%", 82],
  ["COc1ccc(C[C@@H]2NC(=O)[C@@H]3CSSC[C@H](NC(=O)CCCCCNC(=O)CC[C@@H](C(=O)N[C@@H](CC(N)=O)C(=O)N[C@@H](CC(N)=O)C(N)=O)NC(=O)C(C)(C)NC(=O)[C@H](Cc4ccc5ccccc5c4)NC2=O)C(=O)N[C@@H](CC(N)=O)C(=O)N[C@@H]([C@@H](C)O)C(=O)N[C@@H](Cc2c[nH]c4ccccc24)C(=O)N[C@@H](CCC(N)=O)C(=O)N3)cc1 [compound 2] ([Ahx]CNTWQCY(Me)[2Nal][Aib]ENN-NH2; disulfide 2-7; lactam N-11)", "%", 71],
  ["CC(=O)NCCCC[C@@H]1NC(=O)[C@H](Cc2c[nH]c3c(C)cccc23)NC(=O)[C@@H](NC(C)=O)CCCCNC(=O)[C@@H]2CSSC[C@H](NC1=O)C(=O)N[C@@H](Cc1ccc(OCCN(C)C)cc1)C(=O)N[C@H](Cc1ccc3ccccc3c1)C(=O)N[C@@](C)(CCCCN(C)C)C(=O)N[C@H](C(=O)N[C@@H](CC(N)=O)C(=O)N[C@@H](Cc1cccnc1)C(=O)N(C)CC(N)=O)CCC(=O)NCCCCC(=O)N2 [compound 149] (Ac-K[Trp(7-Me)]K(Ac)CY(Me2NCH2CH2)[d2Nal][αMeLys(Me2)]EN[3Pal][Sar]-NH2; linker 1-4-8 via X1)", "%", 95]
]}

Okay, now this compound:
Request: Which remaining at 1 h, 1 µM reading was recorded for the compound CC[C@H](C)[C@H](NC(=O)[C@H](CC(N)=O)NC(=O)[C@H](CC(N)=O)NC(=O)[C@@H]1CCC(=O)NCCCCC(=O)N[C@H]2CSSC[C@H](NC(=O)[C@H](CCCCNC(C)=O)NC(=O)[C@H](Cc3c[nH]c4ccccc34)NC(=O)[C@H]([C@@H](C)O)NC(=O)[C@H](CC(N)=O)NC2=O)C(=O)N[C@@H](Cc2ccc(OCCN(C)C)cc2)C(=O)N[C@@H](Cc2ccc3ccccc3c2)C(=O)NC(C)(C)C(=O)N1)C(N)=O [compound 38] ([Ava]CNTWK(Ac)CY(Me2NCH2CH2)[2Nal][Aib]ENNI-NH2; disulfide 2-7; lactam N-11) ?
Result: 100

###

# experiment: Chemical stability assessment of peptides (relative purity loss)
# Type: physicochemical
# conditionContext: 50 mM phosphate buffer pH 7.4 + acetonitrile (1:1); 24 hours at 37° C.
Starred links: 1 amine or outer side, 2 acyl side, 3 side chain; linkers in the order of their positions; H or OH if unused. Positions of bridges follow the written chain, without caps; N, C: chain ends. Non-standard residues stand in square brackets, D forms with d. Residues, ends and D or L forms follow the SMILES beside them. *: point of attachment. X3 = CN(CCCCC(=O)N[C@@H](CS[*:2])C(=O)[*:1])[*:3]; Trp(7-Me) = Cc1cccc2c(C[C@H](N)C(=O)O)c[nH]c12; X1 = O=C(CCCCN[*:3])N[C@@H](CS[*:2])C(=O)[*:1]; 2Nal = N[C@@H](Cc1ccc2ccccc2c1)C(=O)O; AEF = NCCOc1ccc(C[C@H](N)C(=O)O)cc1; 3Pal = N[C@@H](Cc1cccnc1)C(=O)O; X4 = CN(CCCCCC(=O)[*:2])[*:1]; αMeL = CC(C)C[C@](C)(N)C(=O)O; Thp = NC1(C(=O)O)CCOCC1; Me2NCH2CH2 = CN(C)CC*; Ava = NCCCCC(=O)O; Sar = CNCC(=O)O
metricName: Chemical stability (relative purity loss) Buffer pH 7.4 (%)
Respond with the bare value in %.

The examples below pair each entry with its known result.
{"columns": ["compound", "readoutUnit", "testResult"],
 "data": [
  ["CC(=O)N[C@H]1CCCCNC(=O)[C@@H]2CSSC[C@H](NC(=O)[C@H](CCC(N)=O)NC(=O)[C@H](Cc3c[nH]c4ccccc34)NC1=O)C(=O)N[C@@H](Cc1ccc(OCCN)cc1)C(=O)N[C@@H](Cc1ccc3ccccc3c1)C(=O)N[C@@](C)(CC(C)C)C(=O)N[C@H](C(=O)N[C@@H](C)C(=O)NCC(N)=O)CCC(=O)N(C)CCCCC(=O)N2 [compound 18] (Ac-KWQC[AEF][2Nal][αMeL]EAG-NH2; linker 1-4-8 via X3)", "%", 0.0],
  ["Cc1cccc2c(C[C@@H]3NC(=O)[C@H]([C@@H](C)O)NC(=O)[C@H](CC(N)=O)NC(=O)[C@@H]4CSSC[C@H](NC(=O)[C@H](CC(C)C)NC3=O)C(=O)N[C@@H](Cc3ccc(OCCN(C)C)cc3)C(=O)N[C@@H](Cc3ccc5ccccc5c3)C(=O)NC3(CCOCC3)C(=O)N[C@H](C(=O)N[C@@H](CC(N)=O)C(=O)N[C@@H](Cc3cccnc3)C(=O)N(C)CC(N)=O)CCC(=O)NCCCCC(=O)N4)c[nH]c12 [compound 24] ([Ava]CNT[Trp(7-Me)]LCY(Me2NCH2CH2)[2Nal][Thp]EN[3Pal][Sar]-NH2; disulfide 2-7; lactam N-11)", "%", 0.4],
  ["COc1ccc(C[C@@H]2NC(=O)[C@@H]3CSSC[C@H](NC(=O)CCC(=O)NCCCC[C@@H](C(=O)N[C@@H](CC(N)=O)C(=O)N[C@@H](CC(N)=O)C(N)=O)NC(=O)C(C)(C)NC(=O)[C@H](Cc4ccc5ccccc5c4)NC2=O)C(=O)N[C@@H](CC(N)=O)C(=O)N[C@@H]([C@@H](C)O)C(=O)N[C@@H](Cc2c[nH]c4ccccc24)C(=O)N[C@@H](CCC(N)=O)C(=O)N3)cc1 [compound 11]", "%", 1.0],
  ["CC(C)C[C@@H](NC(=O)[C@H](CC(N)=O)NC(=O)[C@@H]1CC(=O)N(C)CCCCCC(=O)N[C@H]2CSSC[C@H](NC(=O)[C@H](CCC(N)=O)NC(=O)[C@H](Cc3c[nH]c4ccccc34)NC(=O)[C@H]([C@@H](C)O)NC(=O)[C@H](CC(N)=O)NC2=O)C(=O)N[C@@H](Cc2ccc(OCCN(C)C)cc2)C(=O)N[C@@H](Cc2ccc3ccccc3c2)C(=O)N[C@@](C)(CC(C)C)C(=O)N1)C(N)=O [compound 40] ([X4]CNTWQCY(Me2NCH2CH2)[2Nal][αMeL]DN[dL]-NH2; disulfide 2-7; lactam N-11)", "%", 3.0],
  ["CC(=O)N[C@H]1CCCCNC(=O)[C@@H]2CSSC[C@H](NC(=O)[C@H](CCC(N)=O)NC(=O)[C@H](Cc3c[nH]c4ccccc34)NC1=O)C(=O)N[C@@H](Cc1ccc(OCCN(C)C)cc1)C(=O)N[C@@H](Cc1ccc3ccccc3c1)C(=O)NC1(CCOCC1)C(=O)N[C@H](C(=O)N[C@@H](CC(N)=O)C(=O)NCC(N)=O)CCC(=O)NCCCCC(=O)N2 [compound 30] (Ac-KWQCY(Me2NCH2CH2)[2Nal][Thp]ENG-NH2; linker 1-4-8 via X1)", "%", 3.7]
]}

Then there is this compound:
Request: For the compound shown here, CC(=O)N[C@H]1CCCCNC(=O)[C@@H]2CSSC[C@H](NC(=O)[C@H](CCC(N)=O)NC(=O)[C@H](Cc3c[nH]c4ccccc34)NC1=O)C(=O)N[C@@H](Cc1ccc(OCCN)cc1)C(=O)N[C@@H](Cc1ccc3ccccc3c1)C(=O)N[C@@](C)(CC(C)C)C(=O)N[C@H](C(=O)N[C@@H](C)C(=O)N[C@H](CC(C)C)C(N)=O)CCC(=O)N(C)CCCCC(=O)N2 [compound 44] (Ac-KWQC[AEF][2Nal][αMeL]EA[dL]-NH2; linker 1-4-8 via X3) , give the reported Chemical stability (relative purity loss) Buffer pH 7.4.
Result: 0.2

Entry source: patent US20260258084A1
